src = patent US8426392B2

assay: Food interaction study: bioavailability of a single 30 mg oral dose of ulipristal acetate in fed and fasting states; settings: female, human, plasma, oral, 30 mg, Cmax; fasted; single 30 mg ulipristal acetate micronized tablet, healthy women; mean ± SD
measure_name: Cmax (ng/mL)
Numbers only, in ng/mL.

Quickly give me recorded Cmax for CC(=O)O[C@]1(C(C)=O)CC[C@H]2[C@@H]3CCC4=CC(=O)CCC4=C3[C@@H](c3ccc(N(C)C)cc3)C[C@@]21C [ulipristal acetate] 173

----------
test: Food interaction study: bioavailability of a single 30 mg oral dose of ulipristal acetate in fed and fasting states; settings: female, human, plasma, oral, 30 mg, AUC0-t, fed (high-fat breakfast); single 30 mg tablet; mean ± SD
measure_name: AUC(0-t) (ng·h/mL)
One number for each entry, in ng·h/mL.

Quickly give me recorded AUC(0-t) for CC(=O)O[C@]1(C(C)=O)CC[C@H]2[C@@H]3CCC4=CC(=O)CCC4=C3[C@@H](c3ccc(N(C)C)cc3)C[C@@]21C [ulipristal acetate] 566

----------
experiment: Food interaction study: bioavailability of a single 30 mg oral dose of ulipristal acetate in fed and fasting states; details: female, human, plasma, oral, 30 mg, t1/2, fed (high-fat breakfast); single 30 mg tablet; mean ± SD
measure_name: half-life (h)
Numbers only, in h.

Quickly give me recorded half-life for CC(=O)O[C@]1(C(C)=O)CC[C@H]2[C@@H]3CCC4=CC(=O)CCC4=C3[C@@H](c3ccc(N(C)C)cc3)C[C@@]21C [ulipristal acetate] 36

----------
test: Food interaction study: bioavailability of a single 30 mg oral dose of ulipristal acetate in fed and fasting states; conditions: female, human, plasma, oral, 30 mg, Tmax (median), with a high-fat breakfast; as stated for the printed matter
measure_name: Tmax (h)
Give bare numbers, in h.

Quickly give me recorded Tmax for CC(=O)O[C@]1(C(C)=O)CC[C@H]2[C@@H]3CCC4=CC(=O)CCC4=C3[C@@H](c3ccc(N(C)C)cc3)C[C@@]21C [ulipristal acetate] 3

----------
assay: Food interaction study: bioavailability of a single 30 mg oral dose of ulipristal acetate in fed and fasting states; settings: female, human, plasma, oral, 30 mg, Cmax; fed (high-fat breakfast); single 30 mg ulipristal acetate tablet; mean ± SD
measure_name: Cmax (ng/mL)
Answers are plain numbers, in ng/mL.

Quickly give me recorded Cmax for CC(=O)O[C@]1(C(C)=O)CC[C@H]2[C@@H]3CCC4=CC(=O)CCC4=C3[C@@H](c3ccc(N(C)C)cc3)C[C@@]21C [ulipristal acetate] 99.2

----------
experiment: Food interaction study: bioavailability of a single 30 mg oral dose of ulipristal acetate in fed and fasting states; conditions: female, human, plasma, oral, 30 mg, tmax, fasted; single 30 mg tablet; median (range)
measure_name: Tmax (min)
Give bare numbers, in min.

Quickly give me recorded Tmax for CC(=O)O[C@]1(C(C)=O)CC[C@H]2[C@@H]3CCC4=CC(=O)CCC4=C3[C@@H](c3ccc(N(C)C)cc3)C[C@@]21C [ulipristal acetate] 45
